The origin of these recorded values is ChEMBL document CHEMBL4002629.

tested on: PANC-1; assay: Antiproliferative activity against human PANC1 cells after 48 hrs by MTT assay; type: functional, cell-based; conditions: PANC-1, 48 h
measurementKind: IC50 (µM)

{"columns": ["chemicalSmiles", "unitString", "endpointValue"],
 "data": [
  ["COc1ccc2oc(=O)c(C(=O)C(F)(F)F)c(Nc3cc(OC)c(OC)c(OC)c3)c2c1", "µM", 23.8],
  ["COc1ccc2c(Nc3ccc4c(c3)OCO4)c(C(=O)C(F)(F)F)c(=O)oc2c1", "µM", 15.8],
  ["COc1ccc(-c2c(Nc3cccc(C(F)(F)F)c3)c3ccc(OC)cc3oc2=O)cc1", "µM", 39.5],
  ["COc1ccc(-c2c(Nc3ccc(C)cc3)c3ccc(OC)cc3oc2=O)cc1", "µM", 76.5]
]}
